Biological target: CaMKIV(h) (Homo sapiens, UniProt Q16566)
Sequence (Q16566 1-473): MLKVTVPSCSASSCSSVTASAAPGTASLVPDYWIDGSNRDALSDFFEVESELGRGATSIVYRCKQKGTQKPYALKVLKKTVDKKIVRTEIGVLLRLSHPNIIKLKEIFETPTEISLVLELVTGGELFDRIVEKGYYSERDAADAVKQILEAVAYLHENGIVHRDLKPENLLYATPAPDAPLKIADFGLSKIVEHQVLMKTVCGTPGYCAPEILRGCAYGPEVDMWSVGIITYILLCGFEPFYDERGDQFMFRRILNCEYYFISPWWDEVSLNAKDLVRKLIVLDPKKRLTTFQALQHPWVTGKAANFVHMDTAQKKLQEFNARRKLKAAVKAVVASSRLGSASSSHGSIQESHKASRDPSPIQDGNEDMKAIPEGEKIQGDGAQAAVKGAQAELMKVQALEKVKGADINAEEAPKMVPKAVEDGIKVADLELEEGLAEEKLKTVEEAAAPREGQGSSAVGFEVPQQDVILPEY
Assay: Kinase Profiling Assay
Assay type: biochemical
Details: peptide 100 μM
experimental-readout: % activity (%)
Numeric answer only, unit % assumed.

Worked examples, 3 sequences total:
{"sequence-text": "FAKLAARLYRKALARQLGVAA [MMI-0300]", "experimental-readout": "% activity", "result": 17}
{"sequence-text": "HRRIKAWLKKIKALARQLGVAA (Mammal) [MMI-0500]", "experimental-readout": "% activity", "result": -1}
{"sequence-text": "KAFAKLAARLYRKALARQLGVAA [MMI-0400]", "experimental-readout": "% activity", "result": 18}

*Q* Check CaMKIV(h) (Homo sapiens, UniProt Q16566) data and give % activity for YARAAARQARAKALNRQLGVA (Mammal) [MMI-0200] .
*A* 71

###

molecular target: Tie2(h) (Homo sapiens); construct: purchased Millipore; experiment: Kinase Profiling Assay; format: biochemical; conditions: peptide 100 μM
Sequence (Q02763 23-1124): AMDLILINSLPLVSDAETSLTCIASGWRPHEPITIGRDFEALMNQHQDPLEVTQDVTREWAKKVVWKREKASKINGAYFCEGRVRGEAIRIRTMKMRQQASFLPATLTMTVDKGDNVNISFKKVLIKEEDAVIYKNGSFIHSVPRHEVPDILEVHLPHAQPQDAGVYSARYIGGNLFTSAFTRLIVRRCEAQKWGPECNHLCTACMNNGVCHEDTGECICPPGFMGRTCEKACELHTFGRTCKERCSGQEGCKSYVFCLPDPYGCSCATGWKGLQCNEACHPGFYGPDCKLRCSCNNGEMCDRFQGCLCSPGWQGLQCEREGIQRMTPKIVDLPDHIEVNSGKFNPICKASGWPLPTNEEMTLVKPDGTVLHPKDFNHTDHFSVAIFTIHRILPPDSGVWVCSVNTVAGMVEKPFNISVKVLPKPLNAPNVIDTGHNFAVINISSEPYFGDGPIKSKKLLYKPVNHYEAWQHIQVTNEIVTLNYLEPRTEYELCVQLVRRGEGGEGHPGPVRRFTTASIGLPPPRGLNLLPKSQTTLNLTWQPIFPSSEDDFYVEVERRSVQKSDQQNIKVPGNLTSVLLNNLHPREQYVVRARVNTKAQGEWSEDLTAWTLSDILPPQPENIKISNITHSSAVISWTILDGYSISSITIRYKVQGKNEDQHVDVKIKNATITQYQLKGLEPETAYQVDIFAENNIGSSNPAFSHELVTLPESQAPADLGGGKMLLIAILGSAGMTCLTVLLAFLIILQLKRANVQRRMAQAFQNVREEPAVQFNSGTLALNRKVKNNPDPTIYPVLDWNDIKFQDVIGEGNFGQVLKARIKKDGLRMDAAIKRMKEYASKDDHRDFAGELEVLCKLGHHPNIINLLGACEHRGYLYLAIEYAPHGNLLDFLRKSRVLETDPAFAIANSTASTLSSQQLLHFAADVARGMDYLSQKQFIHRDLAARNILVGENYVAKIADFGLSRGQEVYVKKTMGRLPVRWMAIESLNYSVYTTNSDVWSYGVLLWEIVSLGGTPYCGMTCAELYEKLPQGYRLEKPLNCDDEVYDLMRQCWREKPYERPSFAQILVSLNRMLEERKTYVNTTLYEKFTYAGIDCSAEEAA
No end group written: not given here.
Reported % activity is given for each of the following sequences.
Numeric answer only, unit % assumed.

{"sequence-text": "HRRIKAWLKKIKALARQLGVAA (Mammal) [MMI-0500]", "% activity (%)": 22}
{"sequence-text": "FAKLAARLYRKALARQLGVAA [MMI-0300]", "% activity (%)": 26}
{"sequence-text": "YARAAARQARAKALARQLGVAA [MMI-0100]", "% activity (%)": 28}
{"sequence-text": "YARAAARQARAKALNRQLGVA (Mammal) [MMI-0200]", "% activity (%)": 53}

Consider now this further sequence.
*Q* Check Tie2(h) (Homo sapiens) data and give % activity for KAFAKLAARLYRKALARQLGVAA [MMI-0400] .
*A* 21

###

molecular target: Ron(h) (Homo sapiens, UniProt Q04912); test: Kinase Profiling Assay; type: biochemical; details: peptide 100 μM
experimental-readout: % activity (%)
Numeric answer only, unit % assumed.

{"sequence-text": "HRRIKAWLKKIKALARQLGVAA (Mammal) [MMI-0500]", "measure-unit": "%", "% activity": 46}
{"sequence-text": "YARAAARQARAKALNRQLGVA (Mammal) [MMI-0200]", "measure-unit": "%", "% activity": 120}

*Q* Fill in % activity for record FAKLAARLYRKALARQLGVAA [MMI-0300]
*A* 93

*Q* Fill in % activity for record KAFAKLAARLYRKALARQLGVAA [MMI-0400]
*A* 79

###

Reported % activity is given for each of the following sequences.
Target: PhKγ2(h) (Homo sapiens, UniProt P15735)
Sequence (P15735 1-406): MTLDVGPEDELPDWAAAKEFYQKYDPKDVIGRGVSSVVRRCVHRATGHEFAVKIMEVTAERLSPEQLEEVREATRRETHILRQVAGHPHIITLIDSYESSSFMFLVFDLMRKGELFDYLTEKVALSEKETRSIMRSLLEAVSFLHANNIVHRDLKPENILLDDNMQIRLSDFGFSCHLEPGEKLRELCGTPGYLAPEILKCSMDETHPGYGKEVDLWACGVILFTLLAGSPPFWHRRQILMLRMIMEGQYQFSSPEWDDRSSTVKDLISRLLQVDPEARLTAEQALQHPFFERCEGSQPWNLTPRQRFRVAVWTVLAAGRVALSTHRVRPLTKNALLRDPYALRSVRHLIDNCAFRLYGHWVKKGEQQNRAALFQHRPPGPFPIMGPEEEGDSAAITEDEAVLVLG
Assay: Kinase Profiling Assay
Assay type: biochemical
Settings: peptide 100 μM
Numeric answer only, unit % assumed.

Worked examples, 3 sequences total:
{"sequence-text": "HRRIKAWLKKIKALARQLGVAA (Mammal) [MMI-0500]", "% activity (%)": 16}
{"sequence-text": "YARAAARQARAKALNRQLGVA (Mammal) [MMI-0200]", "% activity (%)": 86}
{"sequence-text": "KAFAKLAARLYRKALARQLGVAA [MMI-0400]", "% activity (%)": 38}

Consider now this further sequence.
*Q* Fill in % activity for record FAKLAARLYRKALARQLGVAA [MMI-0300]
*A* 46

###

Molecular target: NLK(h) (Homo sapiens)
Construct: purchased Millipore
Sequence (Q9UBE8 1-527): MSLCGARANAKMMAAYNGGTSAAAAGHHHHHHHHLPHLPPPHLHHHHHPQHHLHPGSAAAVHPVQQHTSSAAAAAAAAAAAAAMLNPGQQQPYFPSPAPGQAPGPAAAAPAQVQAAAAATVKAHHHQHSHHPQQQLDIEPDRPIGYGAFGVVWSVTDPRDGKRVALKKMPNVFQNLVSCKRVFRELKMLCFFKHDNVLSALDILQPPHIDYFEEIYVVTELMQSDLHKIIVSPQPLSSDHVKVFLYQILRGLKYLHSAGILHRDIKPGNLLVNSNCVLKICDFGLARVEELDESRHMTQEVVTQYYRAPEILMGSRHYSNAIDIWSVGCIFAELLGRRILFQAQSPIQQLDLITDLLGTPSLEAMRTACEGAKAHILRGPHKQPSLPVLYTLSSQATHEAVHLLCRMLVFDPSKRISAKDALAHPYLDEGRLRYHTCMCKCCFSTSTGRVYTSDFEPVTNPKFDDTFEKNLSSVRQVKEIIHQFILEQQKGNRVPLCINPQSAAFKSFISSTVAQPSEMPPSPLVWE
Assay: Kinase Profiling Assay
Assay type: biochemical
Conditions: peptide 100 μM
No end group written: not given here.
Reported % activity is given for each of the following sequences.

Worked examples, 3 sequences total:
{"sequence-text": "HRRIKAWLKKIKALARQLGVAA (Mammal) [MMI-0500]", "measurement-target": "NLK(h) (Homo sapiens)", "% activity": "19%"}
{"sequence-text": "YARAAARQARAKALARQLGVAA [MMI-0100]", "measurement-target": "NLK(h) (Homo sapiens)", "% activity": "100%"}
{"sequence-text": "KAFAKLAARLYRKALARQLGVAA [MMI-0400]", "measurement-target": "NLK(h) (Homo sapiens)", "% activity": "90%"}

Consider now this further sequence.
*Q* Check NLK(h) (Homo sapiens) data and give % activity for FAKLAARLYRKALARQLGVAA [MMI-0300] .
*A* 87%

###

target: Met(Y1248D)(h) (Homo sapiens, UniProt P08581, Y1230D); construct: purchased Millipore; test: Kinase Profiling Assay; type: biochemical; settings: peptide 100 μM
No end group written: not given here.
experimental-readout: % activity (%)
Numeric answer only, unit % assumed.

{"sequence-text": "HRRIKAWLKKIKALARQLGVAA (Mammal) [MMI-0500]", "measurement-target": "Met(Y1248D)(h) (Homo sapiens, UniProt P08581, Y1230D)", "experimental-readout": "% activity", "result": 218}

*Q* Check Met(Y1248D)(h) (Homo sapiens, UniProt P08581, Y1230D) data and give % activity for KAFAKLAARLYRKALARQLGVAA [MMI-0400] .
*A* 31

*Q* Check Met(Y1248D)(h) (Homo sapiens, UniProt P08581, Y1230D) data and give % activity for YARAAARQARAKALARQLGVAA [MMI-0100] .
*A* 87

*Q* Check Met(Y1248D)(h) (Homo sapiens, UniProt P08581, Y1230D) data and give % activity for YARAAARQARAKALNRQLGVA (Mammal) [MMI-0200] .
*A* 118

###

Molecular target: PKCι(h) (Homo sapiens, UniProt P41743)
Sequence (P41743 1-596): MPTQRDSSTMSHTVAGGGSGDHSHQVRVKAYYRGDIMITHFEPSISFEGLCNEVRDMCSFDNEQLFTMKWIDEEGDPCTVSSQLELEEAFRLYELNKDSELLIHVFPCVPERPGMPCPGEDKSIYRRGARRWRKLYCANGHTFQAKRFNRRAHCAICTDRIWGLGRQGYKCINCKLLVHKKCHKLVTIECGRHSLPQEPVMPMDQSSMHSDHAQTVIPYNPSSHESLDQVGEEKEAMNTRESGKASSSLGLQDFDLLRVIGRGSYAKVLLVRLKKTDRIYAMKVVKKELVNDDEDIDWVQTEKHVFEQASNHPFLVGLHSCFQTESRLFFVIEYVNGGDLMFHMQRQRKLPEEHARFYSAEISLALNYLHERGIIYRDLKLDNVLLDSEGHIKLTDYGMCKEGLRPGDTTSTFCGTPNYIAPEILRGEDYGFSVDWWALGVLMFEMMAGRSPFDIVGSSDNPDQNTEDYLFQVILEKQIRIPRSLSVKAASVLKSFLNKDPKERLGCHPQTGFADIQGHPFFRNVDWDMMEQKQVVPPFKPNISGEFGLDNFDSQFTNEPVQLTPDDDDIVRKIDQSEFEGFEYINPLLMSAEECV
Assay: Kinase Profiling Assay
Format: biochemical
Conditions: peptide 100 μM
No end group written: not given here.
Reported % activity is given for each of the following sequences.

Worked examples, 4 sequences total:
{"sequence-text": "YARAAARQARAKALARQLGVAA [MMI-0100]", "% activity": "110%"}
{"sequence-text": "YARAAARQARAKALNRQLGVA (Mammal) [MMI-0200]", "% activity": "97%"}
{"sequence-text": "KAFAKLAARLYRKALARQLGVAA [MMI-0400]", "% activity": "46%"}
{"sequence-text": "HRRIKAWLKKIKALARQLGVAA (Mammal) [MMI-0500]", "% activity": "7%"}

Consider now this further sequence.
*Q* Fill in % activity for record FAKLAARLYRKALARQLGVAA [MMI-0300]
*A* 68%

Origin of the recorded values: patent US20150258192A1
